Conditions: in methanol, 308.15 K
QUANTITY NAME: solubility (mole fraction)
Simply state the number, no unit and no words.

Inquiry: What value of solubility (mole fraction) has been reported for the following compound? CC(=O)c1ccc(O)cc1O
Reply text: 0.148

---

Settings: in ethyl acetate, 333.15 K
QUANTITY NAME: solubility (mole fraction)
Simply state the number, no unit and no words.

Inquiry: What value of solubility (mole fraction) has been reported for the following compound? CC(=O)c1ccc(O)cc1O
Reply text: 0.236

---

Settings: in ethyl acetate, 328.15 K
QUANTITY NAME: solubility (mole fraction)
Simply state the number, no unit and no words.

Inquiry: What value of solubility (mole fraction) has been reported for the following molecule? CC(=O)c1ccc(O)cc1O
Reply text: 0.216
